Kindly supply the reported OR10a response (VUAA1-normalized) at 100 μM values for the records listed here.
Molecular target: Drosophila OR10a (Drosophila melanogaster, UniProt Q9VYZ1)
Construct: expressed in transfected cells
Sequence (Q9VYZ1 1-406): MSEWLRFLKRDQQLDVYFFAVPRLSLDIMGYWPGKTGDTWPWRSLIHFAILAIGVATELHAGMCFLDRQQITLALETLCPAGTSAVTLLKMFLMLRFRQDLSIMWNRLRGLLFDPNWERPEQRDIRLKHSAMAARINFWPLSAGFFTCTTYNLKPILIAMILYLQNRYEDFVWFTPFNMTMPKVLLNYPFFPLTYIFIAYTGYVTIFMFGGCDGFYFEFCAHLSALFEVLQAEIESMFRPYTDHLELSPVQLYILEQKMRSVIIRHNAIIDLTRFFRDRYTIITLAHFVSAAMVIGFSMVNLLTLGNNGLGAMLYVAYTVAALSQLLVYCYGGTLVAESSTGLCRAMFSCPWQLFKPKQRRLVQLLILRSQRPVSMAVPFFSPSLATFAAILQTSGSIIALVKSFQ
Sequence (Q9VNB5 1-486 partner): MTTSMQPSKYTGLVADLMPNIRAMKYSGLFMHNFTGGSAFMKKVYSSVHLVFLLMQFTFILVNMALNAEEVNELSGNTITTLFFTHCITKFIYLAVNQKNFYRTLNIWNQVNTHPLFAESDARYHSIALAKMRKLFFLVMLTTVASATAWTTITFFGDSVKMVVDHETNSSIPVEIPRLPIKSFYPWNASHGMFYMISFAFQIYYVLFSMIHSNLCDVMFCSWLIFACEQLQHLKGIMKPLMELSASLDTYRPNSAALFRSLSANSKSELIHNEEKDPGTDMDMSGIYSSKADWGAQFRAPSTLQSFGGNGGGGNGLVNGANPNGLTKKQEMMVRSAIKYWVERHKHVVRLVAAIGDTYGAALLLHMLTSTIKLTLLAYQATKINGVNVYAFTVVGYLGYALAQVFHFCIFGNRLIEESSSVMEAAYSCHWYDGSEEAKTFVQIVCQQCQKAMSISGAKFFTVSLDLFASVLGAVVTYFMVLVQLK
Assay: Calcium ion fluorescence (GCaMP6) assay, OR10a stable HEK293 cell line
Type: cell-based
Conditions: OR10a cell line, VOC concentration 100 μM
Form rule: numeric answer, no unit written next to it.

query: Please report the recorded OR10a response (VUAA1-normalized) at 100 μM for Cc1ccccc1 .
result: 0.07

query: Please report the recorded OR10a response (VUAA1-normalized) at 100 μM for CCCCCCCCC=O .
result: 0.00

query: Please report the recorded OR10a response (VUAA1-normalized) at 100 μM for CCCCCOC(C)=O [pentyl acetate] .
result: 0.30

query: Please report the recorded OR10a response (VUAA1-normalized) at 100 μM for Cc1ccc(C(C)C)cc1 .
result: 0.00

query: Please report the recorded OR10a response (VUAA1-normalized) at 100 μM for CC/C=C\CCOC(C)=O [Z-3-hexenyl acetate] .
result: 0.00

query: Please report the recorded OR10a response (VUAA1-normalized) at 100 μM for C=Cc1ccccc1 .
result: 0.14

query: Please report the recorded OR10a response (VUAA1-normalized) at 100 μM for CC1=CCC23CC1C(C)(C)C2CCC3C (stereo not shown) .
result: 0.00

query: Please report the recorded OR10a response (VUAA1-normalized) at 100 μM for Cc1cccc(C)c1 .
result: 0.00

query: Please report the recorded OR10a response (VUAA1-normalized) at 100 μM for CC/C=C\CCO .
result: 0.10

query: Please report the recorded OR10a response (VUAA1-normalized) at 100 μM for COC(=O)c1ccccc1O [methyl salicylate] .
result: 0.95

query: Please report the recorded OR10a response (VUAA1-normalized) at 100 μM for Cc1ccc(C)cc1 .
result: 0.0641

query: Please report the recorded OR10a response (VUAA1-normalized) at 100 μM for C=C1CCC2(C(C)C)CC12 (stereo not shown) .
result: 0.00

query: Please report the recorded OR10a response (VUAA1-normalized) at 100 μM for COC(=O)c1ccccc1 [methyl benzoate] .
result: 0.67

query: Please report the recorded OR10a response (VUAA1-normalized) at 100 μM for CCCOC(C)=O [propyl acetate] .
result: 0.00

query: Please report the recorded OR10a response (VUAA1-normalized) at 100 μM for CCCCCCCCCCCCCC .
result: 0.08

query: Please report the recorded OR10a response (VUAA1-normalized) at 100 μM for Cc1ccccc1C .
result: 0.00

query: Please report the recorded OR10a response (VUAA1-normalized) at 100 μM for CCCCCCCCCCC .
result: 0.00

query: Please report the recorded OR10a response (VUAA1-normalized) at 100 μM for OCCc1ccccc1 .
result: 0.00

query: Please report the recorded OR10a response (VUAA1-normalized) at 100 μM for C=CC(C)(O)CCC=C(C)C (stereo not shown) .
result: 0.00

###

Kindly supply the reported DF norm AVERAGE OR98a values for the records listed here.
biological target: Drosophila OR98a (Drosophila melanogaster); construct: expressed in transfected cells; assay: Calcium ion fluorescence (GCaMP6) assay, OR98a stable HEK293 cell line; format: cell-based; settings: ligand concentration 100 (unit not given); 0.05 threshold, values below shown as 0
Sequence (Q9VAZ3 whole entry, one chain of several): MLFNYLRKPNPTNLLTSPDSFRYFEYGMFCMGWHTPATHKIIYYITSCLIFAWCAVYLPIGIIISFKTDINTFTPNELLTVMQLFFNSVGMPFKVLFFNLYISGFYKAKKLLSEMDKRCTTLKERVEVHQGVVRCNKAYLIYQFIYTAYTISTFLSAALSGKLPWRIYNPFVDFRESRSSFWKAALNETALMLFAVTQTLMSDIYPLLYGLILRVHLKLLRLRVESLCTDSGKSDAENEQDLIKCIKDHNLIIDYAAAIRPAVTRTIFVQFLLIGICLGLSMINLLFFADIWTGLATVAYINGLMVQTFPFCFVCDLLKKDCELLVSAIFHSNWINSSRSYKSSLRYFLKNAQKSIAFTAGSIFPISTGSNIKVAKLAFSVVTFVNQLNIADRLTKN
Form rule: numeric answer, no unit written next to it.

query: Drosophila OR98a (Drosophila melanogaster) / DF norm AVERAGE OR98a / CCCCCCCCCCC [undecane] : value?
result: 0.08228

query: Drosophila OR98a (Drosophila melanogaster) / DF norm AVERAGE OR98a / CC/C=C\CCO [Z3-hexenol] : value?
result: 0.1147

query: Drosophila OR98a (Drosophila melanogaster) / DF norm AVERAGE OR98a / C=Cc1ccccc1 [styrene] : value?
result: 0

query: Drosophila OR98a (Drosophila melanogaster) / DF norm AVERAGE OR98a / CCCCCCCCCCCCCC [tetradecane] : value?
result: 0.09569

query: Drosophila OR98a (Drosophila melanogaster) / DF norm AVERAGE OR98a / Cc1ccccc1 [toluene] : value?
result: 0

query: Drosophila OR98a (Drosophila melanogaster) / DF norm AVERAGE OR98a / CC/C=C\CCOC(C)=O [z3-hexenyl acetate] : value?
result: 0.1048

query: Drosophila OR98a (Drosophila melanogaster) / DF norm AVERAGE OR98a / CC1=CCC23CC1C(C)(C)C2CCC3C (stereo not drawn) [α-funebrene] : value?
result: 0.05199

###

Kindly supply the reported activation at 1 µM values for the records listed here.
biological target: Drosophila OR13a (Drosophila melanogaster, UniProt Q9VXL0); construct: expressed in transfected cells; experiment: Calcium ion fluorescence (GCaMP6) assay, OR13a stable HEK293 cell line; assay type: cell-based; details: HEK293, read-out: OR13a Average response (VUAA1-normalized), 1 μM VOC; 50 μM VUAA1 = 1; responses not exceeding 0.05 considered 0
Sequence (Q9VXL0 whole entry, one chain of several, the tested form may be a part): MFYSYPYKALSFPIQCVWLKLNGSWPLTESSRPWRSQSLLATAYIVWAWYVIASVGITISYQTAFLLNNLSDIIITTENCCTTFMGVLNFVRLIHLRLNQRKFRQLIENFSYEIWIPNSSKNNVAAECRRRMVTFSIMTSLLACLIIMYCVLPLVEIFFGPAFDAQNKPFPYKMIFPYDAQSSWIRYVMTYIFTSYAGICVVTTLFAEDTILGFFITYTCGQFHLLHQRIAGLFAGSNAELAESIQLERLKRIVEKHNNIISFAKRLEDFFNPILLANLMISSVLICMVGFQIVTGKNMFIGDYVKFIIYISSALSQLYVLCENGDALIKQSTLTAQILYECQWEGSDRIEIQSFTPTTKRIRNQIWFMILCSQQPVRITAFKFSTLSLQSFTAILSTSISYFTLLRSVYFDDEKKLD
Give the value in % but do not write % after it.

query: Please report the recorded activation at 1 µM for Cc1ccccc1C .
result: 0

query: Please report the recorded activation at 1 µM for COC(=O)c1ccccc1 [methyl benzoate] .
result: 0

query: Please report the recorded activation at 1 µM for C=C1CC[C@H]2O[C@]2(C)CC[C@@H]2[C@@H]1CC2(C)C [(-)-caryophyllene oxide] .
result: 0

query: Please report the recorded activation at 1 µM for CC(=O)c1ccccc1 .
result: 0

query: Please report the recorded activation at 1 µM for O=Cc1ccccc1 .
result: 0

query: Please report the recorded activation at 1 µM for CCCCCC(C)=O .
result: 0

query: Please report the recorded activation at 1 µM for CCCCCCCCCCC .
result: 0

query: Please report the recorded activation at 1 µM for C=CCc1ccc(O)c(OC)c1 .
result: 0

query: Please report the recorded activation at 1 µM for CCCC(O)CC (stereo not shown) .
result: 5

query: Please report the recorded activation at 1 µM for C=C1CCC2(C(C)C)CC12 (stereo not shown) .
result: 0

query: Please report the recorded activation at 1 µM for C=C1CC/C=C(\C)CC[C@@H]2[C@@H]1CC2(C)C [(-)-trans-caryophyllene] .
result: 0

query: Please report the recorded activation at 1 µM for CCCCCC(=O)CC .
result: 0

query: Please report the recorded activation at 1 µM for COc1cccc(OC)c1 .
result: 0

query: Please report the recorded activation at 1 µM for C=CC(C)(O)CCC=C(C)C (stereo not shown) .
result: 1.21

query: Please report the recorded activation at 1 µM for CC1=CCC2CC1C2(C)C (stereo not shown) .
result: 0

query: Please report the recorded activation at 1 µM for CCCCCCCO .
result: 2

query: Please report the recorded activation at 1 µM for C=CC(O)CCCCC (stereo not shown) .
result: 31

query: Please report the recorded activation at 1 µM for CCCCCO .
result: 0

query: Please report the recorded activation at 1 µM for Cc1cccc(O)c1 .
result: 0

query: Please report the recorded activation at 1 µM for OCCc1ccccc1 .
result: 6.58

query: Please report the recorded activation at 1 µM for CC/C=C\CCOC(C)=O [z3-hexenyl acetate] .
result: 0

query: Please report the recorded activation at 1 µM for Cc1ccc(C(C)C)cc1 .
result: 0

query: Please report the recorded activation at 1 µM for Cc1ccc(C)c(C)c1 .
result: 0

query: Please report the recorded activation at 1 µM for Cc1ccccc1 .
result: 0

query: Please report the recorded activation at 1 µM for CC1=CC[C@@H](C(C)(C)O)CC1 .
result: 3.36

query: Please report the recorded activation at 1 µM for CCCCCC(=O)OCC [ethyl hexanoate] .
result: 3.2

query: Please report the recorded activation at 1 µM for CCCC(=O)OCC [ethyl butyrate] .
result: 0

query: Please report the recorded activation at 1 µM for Cc1ccc(O)cc1 .
result: 4.62
